Every entry's value here was drawn from patent US5714483A.

# Tested on: capsaicin-induced cough
# experimental_details: Capsaicin-induced cough in rats (60 μM capsaicin), ED50, Example 3
# Type: in vivo, SD male rats
# setup_conditions: Rattus norvegicus, ip, 0.5 h; i.p.; capsaicin 60 μM, 30 minutes after administration; read-out: ED50 (dose at which the number of cough is suppressed to half)
# Protocol: SD male rats (body weight: 250-350 g) were used under non-anesthesic condition. Respiration and cough were measured by plestimography. […] The respiration of the rats was measured by measuring the movement of the thorax due to the respiration in terms of the change in the inner volume of the cylinder by the respiration flow meter. […] This large change is distinguished from the normal respiration and measured by the respiration flow meter. […]

# smiles_string, ED50
measured = [
    ("Oc1ccc2c3c1O[C@H]1c4[nH]c5c6c(ccc5c4C[C@@]4(O)[C@@H](C2)N(CC2CC2)CC[C@]314)CCCC6", "0.0395 mg/kg"),
    ("Oc1ccc2c3c1O[C@H]1c4nc5ccccc5cc4C[C@@]4(O)[C@@H](C2)N(CC2CC2)CC[C@]314", "0.984 mg/kg"),
    ("COc1ccc2c3c1O[C@H]1c4[nH]c5c(ccc6cnccc65)c4C[C@@]4(O)[C@@H](C2)N(CC2CC2)CC[C@]314", "0.0413 mg/kg"),
    ("Oc1ccc2c3c1O[C@H]1c4[nH]c5c(ccc6cnccc65)c4C[C@@]4(O)[C@@H](C2)N(CC2CC2)CC[C@]314", "0.0797 mg/kg"),
    ("COc1ccc2c3c1O[C@H]1c4[nH]c5ccccc5c4C[C@@]4(O)[C@@H](C2)N(CC2CC2)CC[C@]314", "0.0639 mg/kg"),
]
